# Tested on: PPARg:RXRa 90nM:30nM, anti-RXR (NR concentration 90 nM, RXRa partner concentration 30 nM)
# experiment notes: PBM binding z-score (relative to random genomic background probes); higher = stronger binding; sequences stand for … in GC…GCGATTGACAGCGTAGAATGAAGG
Is PBM binding z-score at least 0.5? Then 1. If not, 0.

> print(dat)
                         residue.codes  group.label
 1  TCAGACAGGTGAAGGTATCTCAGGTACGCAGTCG            1
 2  ATCTCTAGGTATAGATAGTTCAGTGAATGCAAAT            0
 3  CCTAACAGGCCAGGGTCACTCAAGCATTTCGCTT            0
 4  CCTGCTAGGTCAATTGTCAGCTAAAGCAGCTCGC            1
 5  ACAATTAGTTGAGACGAGGGCAACCGATAGGTTG            0
 6  CGAACTAGGTCATCCAGGCCAGTGAATACATTGA            1
 7  CGTCAAAGTTTAAGGTAACGTAACAGAAAGCAGC            1
 8  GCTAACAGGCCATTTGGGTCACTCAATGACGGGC            0
 9  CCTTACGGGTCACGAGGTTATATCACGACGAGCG            1
10  AATACAGGGTCACTAGGCCAGAGCAGGTACGAAT            1

Ask | Entry `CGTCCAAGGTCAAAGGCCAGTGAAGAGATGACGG` : is its PBM binding z-score no less than 0.5?
Reply | 1
